# Tested on: BDF1 mice, P388 leukemia ip, median survival T/C
# experimental-protocol: NCI In Vivo Anticancer Drug Screen. Data for tumor model P388 Leukemia (intraperitoneal) in B6D2F1 (BDF1) mice
# condition: endpoint: median survival time; dose: 50.0 mg/kg/injection; schedule: Q01DX009 (ip); vehicle: saline; higher = longer survival
Toxic doses and inconclusive results are not listed.
parameter-measured: T/C

Some solved entries appear below for comparison.
>  <molecule>
O=[N+]([O-])c1ccc(/C=N/c2nccs2)o1

>  <T/C>
94 % of control

$$$$
>  <molecule>
C#CC(C)(C)OCC(O)CCl (stereo not given)

>  <T/C>
95 % of control

$$$$
>  <molecule>
CCOC(=O)c1ccccn1

>  <T/C>
94 % of control

$$$$
>  <molecule>
NC(=O)/C=C/C(=O)O

>  <T/C>
93 % of control

$$$$
>  <molecule>
O=C1NC(O)CCN1C1OC(CO)C(O)C1O (stereo not given)

>  <T/C>
89 % of control

$$$$
>  <molecule>
CCOC(=O)c1c(N)ssc1=S

>  <T/C>
111 % of control

$$$$

// field: T/C; key: CS(=O)(=O)c1ncc(Br)cn1 ; value = 111 % of control

The reported value for CC(O)C(F)(F)C(F)(F)C(F)(F)C(C)O (stereo not given) in terms of T/C is 90 % of control

Data point: CN(C)CC(C)(C)CO ; T/C = 106 % of control

* * *

# System: BDF1 mice, P388 leukemia ip, median survival T/C
# experimental-protocol: NCI In Vivo Anticancer Drug Screen. Data for tumor model P388 Leukemia (intraperitoneal) in B6D2F1 (BDF1) mice
# condition: endpoint: median survival time; dose: 100.0 mg/kg/injection; schedule: Q04DX003 (ip); vehicle: water; higher = longer survival
Inconclusive results and toxic doses are left out.
parameter-measured: T/C

These solved cases illustrate the format of a correct answer.
>  <compound>
O=C(NC1CSSC1)C(Cc1ccccc1)N1C(=O)c2ccccc2C1=O (stereo not drawn)

>  <T/C>
98 % of control

$$$$
>  <compound>
Nc1ncnc2nc[nH]c12.[Cl][Pt][Cl]

>  <T/C>
93 % of control

$$$$
>  <compound>
O=C(CCNC(=O)OCc1ccccc1)NC(CSCc1ccccc1)C(=O)O (stereo not drawn)

>  <T/C>
105 % of control

$$$$
>  <compound>
c1ccc(CN(CCNc2ccccc2)c2ccccc2)cc1

>  <T/C>
98 % of control

$$$$

For record Clc1ccc(-c2cc[s+]s2)cc1 the listed T/C is 98 % of control

Reported T/C for CC(O)(C(N)=O)c1cc(Cl)ccc1Cl (stereo not drawn) was 109 % of control

According to the records, this compound Cn1c[n+](C)ccc1=O displays T/C of 91 % of control

// recorded T/C for Cc1nc(C(=O)O)c(=O)[nH]c1C : 105 % of control

* * *

Below: a set of entries, each annotated with reported T/C.
# Test system: BDF1 mice, P388 leukemia ip, median survival T/C
# experimental-protocol: NCI In Vivo Anticancer Drug Screen. Data for tumor model P388 Leukemia (intraperitoneal) in B6D2F1 (BDF1) mice
# condition: endpoint: median survival time; dose: 6.25 mg/kg/injection; schedule: Q04DX003 (ip); vehicle: saline with Tween-80; higher = longer survival
Inconclusive results and toxic doses are left out.

Solved entries:
>  <chemical-smiles>
CCCCOc1ccc(C(=O)NN)cc1

>  <T/C>
100 % of control

$$$$
>  <chemical-smiles>
ClCCN(CCCl)CCCN1c2ccccc2Sc2ccc(Cl)cc21

>  <T/C>
154 % of control

$$$$
>  <chemical-smiles>
Clc1ccc(-c2ncc3cnccn23)cc1Cl

>  <T/C>
100 % of control

$$$$

Entry O=[n+]1c2ccccc2n([O-])c2ccccc21.[Cl][Cu][Cl] ; T/C = 101 % of control

* * *

Collected T/C values appear next to each entry.
# System: BDF1 mice, P388 leukemia ip, median survival T/C
# experimental-protocol: NCI In Vivo Anticancer Drug Screen. Data for tumor model P388 Leukemia (intraperitoneal) in B6D2F1 (BDF1) mice
# condition: endpoint: median survival time; dose: 12.5 mg/kg/injection; schedule: Q04DX003 (ip); vehicle: water; higher = longer survival
Toxic doses and inconclusive results are not listed.

Here's what some known entries look like.
>  <chemical-smiles>
Cc1cn(C)c2nccnc12

>  <T/C>
102 % of control

$$$$
>  <chemical-smiles>
O=C(/C=C\c1ccnc2ccccc12)c1ccc([N+](=O)[O-])cc1

>  <T/C>
96 % of control

$$$$
>  <chemical-smiles>
CCN(CC)Cc1c(C)[nH]c2c(OC)cccc2c1=O

>  <T/C>
91 % of control

$$$$

Below: the item to evaluate.
// C[n+]1cccc2c3ccccc3c(-c3ccccc3)cc21 : T/C value = 103 % of control

* * *

# System: BDF1 mice, P388 leukemia ip, median survival T/C
# experimental-protocol: NCI In Vivo Anticancer Drug Screen. Data for tumor model P388 Leukemia (intraperitoneal) in B6D2F1 (BDF1) mice
# condition: endpoint: median survival time; dose: 25.0 mg/kg/injection; schedule: Q01DX009 (ip); vehicle: Klucel (hydroxypropylcellulose) (HPC)
Inconclusive results and toxic doses are left out. The calls were made as follows: active = survival T/C of 150% or more; inactive = T/C below 125% in these data.
Respond with a class label; see active, inactive

Please review the following examples before continuing.
>  <molecule>
NC(CSC(c1ccccc1)(c1ccccc1)c1ccc(F)cc1)C(=O)O (stereo not given)

>  <tested-system>
BDF1 mice, P388 leukemia ip, median survival T/C

>  <class-label>
active

$$$$
>  <molecule>
CCN(CC)Cc1c(C)[nH]c2ccc(N(C)C)cc2c1=O

>  <tested-system>
BDF1 mice, P388 leukemia ip, median survival T/C

>  <class-label>
inactive

$$$$
>  <molecule>
Cc1n[nH]c(=O)[nH]c1=O

>  <tested-system>
BDF1 mice, P388 leukemia ip, median survival T/C

>  <class-label>
inactive

$$$$
>  <molecule>
CCN(CC)CCCC#CCN1CCCCC1

>  <tested-system>
BDF1 mice, P388 leukemia ip, median survival T/C

>  <class-label>
inactive

$$$$
>  <molecule>
Cc1cc(C)n(CO)n1

>  <tested-system>
BDF1 mice, P388 leukemia ip, median survival T/C

>  <class-label>
inactive

$$$$

In this assay, the call recorded for Cc1c(C)c(CC#N)c(C)c(C)c1CC#N was what?
inactive

Test call, this molecule: O=C1C(Cl)=C(N2CCOCC2)C(=O)c2ccccc21
inactive

Assay outcome for COc1ccc(CNc2ncccn2)cc1 : what was it?
inactive

Please indicate how the test categorized C=[CH][Sn][CH2]CCC .
inactive

// return assay outcome for Clc1cc(Cl)c2c(c1)COCO2
inactive

For Cc1ccc(NC(=O)N(CCCCl)N=O)cc1 , what call appears in the results of this test?
inactive

Could you check what this test reported for N[C@H](C(=O)O)[C@H]1ON=C(Cl)[C@@H]1O ?
active

* * *

# System: BDF1 mice, P388 leukemia ip, median survival T/C
# experimental-protocol: NCI In Vivo Anticancer Drug Screen. Data for tumor model P388 Leukemia (intraperitoneal) in B6D2F1 (BDF1) mice
# condition: endpoint: median survival time; dose: 1.0 mg/kg/injection; schedule: Q01DX009 (ip); vehicle: saline with Tween-80; higher = longer survival
Toxic doses and inconclusive results are not listed.
parameter-measured: T/C

Field: example entries. Status: answers known.
>  <molecule>
N[C@H](C(=O)O)[C@H]1ON=C(Cl)[C@@H]1O

>  <parameter-measured>
T/C

>  <observed-result>
105 % of control

$$$$
>  <molecule>
CC1NC(=O)C2Cc3ccc(O)c(c3)Oc3ccc(cc3)C(O)C(C(=O)N2C)N(C)C(=O)C(C)NC(=O)C(Cc2ccc(O)cc2)N(C)C(=O)C(C)NC1=O (centres undefined)

>  <parameter-measured>
T/C

>  <observed-result>
98 % of control

$$$$

The recorded T/C for CC1(C)N=C(N)N=C(N)N1c1ccc(CCCCc2cccc(S(=O)(=O)F)c2)c(Cl)c1 is 119 % of control

The reported T/C of the molecule CC[CH2][Sn]([CH2]CC)([CH2]CC)[O][Sn]([CH2]CC)([CH2]CC)[CH2]CC was 100 % of control

* * *

# Test system: BDF1 mice, P388 leukemia ip, median survival T/C
# experimental-protocol: NCI In Vivo Anticancer Drug Screen. Data for tumor model P388 Leukemia (intraperitoneal) in B6D2F1 (BDF1) mice
# condition: endpoint: median survival time; dose: 3.0 mg/kg/injection; schedule: Q04DX003 (ip); vehicle: saline
Inconclusive results and toxic doses are left out. Rule for the calls: active = survival T/C of 150% or more; inactive = T/C below 125% in these data.
Entry note: the call must match one of 1 (yes) (active), 0 (no) (inactive)

>  <compound>
COc1cccc2c1C(=O)c1c(O)c3c(c(O)c1C2=O)C[C@@](O)(/C(C)=N/NC(=O)c1ccccc1)C[C@@H]3OC1CC(N)C(O)C(C)O1 (some centres undefined)

>  <class-label>
1 (yes)

$$$$

Hey, what did the test say about COCCOC1=C(N2CC2)C(=O)C(OCCOC)=C(N2CC2)C1=O ?
1 (yes)

Please state the recorded outcome for this compound: CCC[N+](C)(C)CCCCOCCCC[N+](C)(C)CCC
0 (no)

Could you kindly confirm the outcome this assay logged for Cc1c2cc3c(cc2cc2c4cc5c(cc4cc[n+]12)OCO5)OCO3 (tested in a mixture with another compound) ?
1 (yes)

The reported measurements were obtained from PubChem BioAssay AID328.
